Tested on: SNB-75 CNS
assayNotes: NCI tumour cell line growth inhibition, 48 h
readoutKind: TGI

The reported value for "N#CCc1nc(-c2cc3c(ccc4ccccc43)oc2=O)cs1" in terms of TGI is 20.4 µM

Lab note: measured TGI of COc1ccc(C2=NN(C(=O)c3cccnc3)C(O)(c3cc(F)c(Cl)cc3Cl)C2)cc1OC (stereo unspecified) was 62.9 µM

Form field TGI, entry "CCOP(=O)(OCC)C(F)(F)Cc1cnc(C)c2c1COC(C)(C)O2" : > 10 µM

GET /value?item= "CCCCCCCCCCCCC(CCCCCCCCCCCC)OP(=O)(O)O" &field=TGI returns > 100 µM

Memo: "COc1ccc(-n2sc3ncc([N+](=O)[O-])cc3c2=O)cc1" , reported TGI: > 100 µM

For reference, reported TGI for "Cn1c(=O)c2c(nc(NCCNc3nc4c(c(=O)n(C)c(=O)n4C)n3C)n2C)n(C)c1=O" stands at > 100 µM

Entry "Cc1ccc(N2C(=O)C(Cl)=C(Cl)C2=O)cc1" — recorded TGI = 48.5 µM

For reference, reported TGI for "Cc1c(CC/C(=N\Nc2ccc([N+](=O)[O-])cc2[N+](=O)[O-])c2ccccc2)c2ccccc2n1C" stands at > 100 µM

Sure, the documented TGI for "CC/C(SC)=[N+](\C)[O-]" is > 100 µM

Sample "Cn1c(=O)c2c(nc3n(C)c(=O)c4ccccc4n23)n(C)c1=O" ; TGI observed: > 93.5 µM

Measured TGI of "CCn1c2ccccc2c2cc(NC(=O)c3c(NCCNCCO)nc(=O)[nH]c3C)ccc21" : > 100 µM

###

System: OVCAR-5 ovarian
assayNotes: NCI tumour cell line growth inhibition, 48 h
readoutKind: TGI

Data point: "CNC(=O)Nc1ccccc1" ; TGI = > 100 µM

For "O=c1[nH]c2cc([N+](=O)[O-])ccc2nc1/C=C(\O)c1ccc(Cl)cc1" the molecule record lists TGI as 46 µM

The molecule listed as "Cc1c(CC/C(=N\Nc2ccc([N+](=O)[O-])cc2[N+](=O)[O-])c2ccccc2)c2ccccc2n1C" shows TGI equal to > 100 µM

molecule "Oc1c(I)cc(I)cc1CN(Cc1ccccn1)Cc1ccccn1" , TGI observed: 53.5 µM

Form: molecule = "O=C1C[C@H](CCC(=O)OCc2ccccc2)NC(=O)C[C@H](CCC(=O)OCc2ccccc2)NC(=O)C[C@H](CCC(=O)OCc2ccccc2)N1" ; TGI = > 100 µM

Lab note: "COc1cccc(Nc2nc(N)nc(N)c2N=O)c1" gave TGI of > 100 µM

The molecule listed as "COc1ccc2c(c1)CC[C@@H]1[C@@H]2CC[C@]2(C)C(=O)/C(=C/c3ccc(O)c(OC)c3)C[C@@H]12" has a reported TGI of > 100 µM

The molecule listed as Cc1ccc2c(c1)C=CC(C#N)N2C(=O)Oc1ccccc1 (configuration not stated) shows TGI equal to > 100 µM

The recorded TGI for entry COC1=CC(=O)C2C(C1=O)C(c1ccc(OC)c(OC)c1)[C@H]2C (some centres not stated) equals > 100 µM

Per the record, "COc1ccc2c(c1)C(=O)c1c-2c(NCCN(C)C)nc2ccccc12" has TGI of 16 µM

Sure, the documented TGI for "C=C(C)[C@@H]1CC[C@]2(C(N)=O)CC[C@]3(C)[C@H](CC[C@@H]4[C@@]5(C)C/C(=C/c6cccnc6)[C@H](O)C(C)(C)[C@@H]5CC[C@]43C)[C@@H]12" is > 100 µM

Recorded result, COc1ccc(C2S/C(=C\c3ccccc3)C(=O)N2NC(=O)Cc2ccccc2)cc1 (configuration not stated) , TGI: > 100 µM

The molecule listed as "O=C(O)c1ccccc1Nc1ccc2nnc(-c3ccncc3)n2n1" shows TGI equal to 79.3 µM

So, Nc1nc(=O)n(CC(O)CO)s1 (configuration not stated) ? Its TGI was > 100 µM

Form: molecule = "CCOC(=O)c1cc(C#N)[nH]c1-c1ccsc1" ; TGI = > 100 µM

// recorded TGI for "c1cc(NC2=NCCO2)c2c(c1)OCO2" : > 100 µM

Documented TGI of "Cc1nn(C)c2cc(N(C)c3ccnc(Nc4cccc(S(N)(=O)=O)c4)n3)ccc12" : > 25 µM

For this molecule ( "CCOC(=O)c1cc2cc(C)cc(C(=O)c3ccc([N+](=O)[O-])cc3)c2[nH]1" ), measured TGI is > 100 µM

Entry CCOC(=O)NC1CC2CCC1(OC)C=C2C (configuration not stated) — recorded TGI = > 100 µM

Entry "COc1ccc2nc(-c3cc4c([nH]c5ccccc54)c(-c4ccc(F)c(F)c4)n3)[nH]c2c1" — recorded TGI = 58.6 µM

Lab note: measured TGI of O=C(N/N=C(\c1nc2ccc(Cl)cc2[nH]c1=O)C(O)c1ccccc1Cl)c1ccncc1 (configuration not stated) was > 100 µM

For record "Cn1sc2ccccc2c1=S" the listed TGI is 37.4 µM

Values compiled from PubChem BioAssay (NCI).
